Item-by-item account of degraded at 24 h
# Measurement Protocol: Chemical stability (relative purity loss) of peptide compounds in buffer formulations (Table 6)
# Type: physicochemical
# Experimental Setup: 50 mM phosphate buffer pH 6.5 + acetonitrile (3:1), 2° C. and 37° C., read-out: Chemical stability (relative purity loss), Buffer pH 6.5
Numbered stars: 1 amine (or outer) side, 2 acyl side, 3 side chain; on linkers, the order of the positions; unused ones are H or OH. Bridge positions count the residues as written; N and C are the ends. Square brackets hold non-standard residues; d marks the D form. Peptide text beside a SMILES is read from it. * marks the point of attachment. Lys(Me,(CH2)4NMe(CH2)4CO) = CN(CCCCC(=O)[*:3])CCCCN(C)CCCC[C@H](N[*:1])C(=O)[*:2]; X3 = Cc1cccc2c(C[C@H](N[*:1])C(=O)[*:2])cn(C)c12; Trp(7-Me) = Cc1cccc2c(C[C@H](N)C(=O)O)c[nH]c12; NH(2-(3-pyridyl)ethyl) = c1cncc(CCN*)c1; Sebacoyl = O=C(CCCCCCCCC(=O)[*:2])[*:1]; 2Nal = N[C@@H](Cc1ccc2ccccc2c1)C(=O)O; 3Pal = N[C@@H](Cc1cccnc1)C(=O)O; Aun = NCCCCCCCCCCC(=O)O; Thp = NC1(C(=O)O)CCOCC1; Me2NCH2CH2 = CN(C)CC*; Aib = CC(C)(N)C(=O)O; Sar = CNCC(=O)O

>  <Compound>
Cc1cccc2c(C[C@@H]3NC(=O)CCCCN(C)CCCCN(C)CCCC[C@@H](C(=O)NCC(=O)NCCc4cccnc4)NC(=O)C(C)(C)NC(=O)[C@H](Cc4ccc5ccccc5c4)NC(=O)[C@H](Cc4ccc(OCCN(C)C)cc4)NC(=O)C4(CCOCC4)NC(=O)[C@H](CC(C)C)NC3=O)cn(C)c12 [compound 49] ([X3]L[Thp]Y(Me2NCH2CH2)[2Nal][Aib][Lys(Me,(CH2)4NMe(CH2)4CO)]G-{NH(2-(3-pyridyl)ethyl)}; lactam N-7)

>  <degraded at 24 h [%]>
0

$$$$
>  <Compound>
Cc1cccc2c(C[C@@H]3NC(=O)CCCCCCCCC(=O)NCCCC[C@@H](C(=O)N[C@@H](CC(N)=O)C(=O)N[C@@H](Cc4cccnc4)C(=O)N(C)CC(N)=O)NC(=O)C(C)(C)NC(=O)[C@H](Cc4ccc5ccccc5c4)NC(=O)[C@H](Cc4ccc(OCCN(C)C)cc4)NC(=O)C4(CCOCC4)NC(=O)[C@H](CCC(N)=O)NC3=O)c[nH]c12 [compound 11] ([Trp(7-Me)]Q[Thp]Y(Me2NCH2CH2)[2Nal][Aib]KN[3Pal][Sar]-NH2; linker N-7 via Sebacoyl)

>  <degraded at 24 h [%]>
0

$$$$
>  <Compound>
Cc1cccc2c(C[C@@H]3NC(=O)CCCCCCCCCCNC(=O)CC[C@@H](C(=O)N[C@@H](CC(N)=O)C(=O)N[C@@H](Cc4cccnc4)C(=O)N(C)CC(N)=O)NC(=O)C(C)(C)NC(=O)[C@H](Cc4ccc5ccccc5c4)NC(=O)[C@H](Cc4ccc(OCCN(C)C)cc4)NC(=O)C4(CCOCC4)NC(=O)[C@H](CC(C)C)NC3=O)c[nH]c12 [compound 7] ([Aun][Trp(7-Me)]L[Thp]Y(Me2NCH2CH2)[2Nal][Aib]EN[3Pal][Sar]-NH2; lactam N-8)

>  <degraded at 24 h [%]>
0

$$$$

###

Item-by-item account of solubility at 2 h
# Measurement Protocol: Solubility of peptide compounds in buffer formulations (Table 5)
# Assay type: physicochemical
# Experimental Setup: aqueous buffer; 50 mM phosphate buffer pH 7.4, 2 h agitation, target 1 mg/ml; read-out: Solubility, Buffer pH 7.4
Numbered stars: 1 amine (or outer) side, 2 acyl side, 3 side chain; on linkers, the order of the positions; unused ones are H or OH. Bridge positions count the residues as written; N and C are the ends. Square brackets hold non-standard residues; d marks the D form. Peptide text beside a SMILES is read from it. * marks the point of attachment. Lys(Me,(CH2)4NMe(CH2)5CO) = CN(CCCCCC(=O)[*:3])CCCCN(C)CCCC[C@H](N[*:1])C(=O)[*:2]; Lys(Me,(CH2)4NMe(CH2)4CO) = CN(CCCCC(=O)[*:3])CCCCN(C)CCCC[C@H](N[*:1])C(=O)[*:2]; X2 = O=C(Cc1ccc(-c2ccc(CC(=O)[*:2])cc2)cc1)[*:1]; Trp(7-Me) = Cc1cccc2c(C[C@H](N)C(=O)O)c[nH]c12; αMeLys(Me2) = CN(C)CCCC[C@](C)(N)C(=O)O; 2Nal = N[C@@H](Cc1ccc2ccccc2c1)C(=O)O; X1 = O=C(CCCCCCCCCCCCCN[*:1])[*:2]; 3Pal = N[C@@H](Cc1cccnc1)C(=O)O; 12Ado = NCCCCCCCCCCCC(=O)O; Aun = NCCCCCCCCCCC(=O)O; Thp = NC1(C(=O)O)CCOCC1; Me2NCH2CH2 = CN(C)CC*; Aib = CC(C)(N)C(=O)O; Sar = CNCC(=O)O
Observation Type: solubility at 2 h

>  <Molecule>
Cc1cccc2c(C[C@@H]3NC(=O)Cc4ccc(cc4)-c4ccc(cc4)CC(=O)NCCCC[C@@H](C(=O)N[C@@H](CC(N)=O)C(=O)N[C@@H](Cc4cccnc4)C(=O)N(C)CC(N)=O)NC(=O)C(C)(C)NC(=O)[C@H](Cc4ccc5ccccc5c4)NC(=O)[C@H](Cc4ccc(OCCN(C)C)cc4)NC(=O)C4(CCOCC4)NC(=O)[C@H](CCC(N)=O)NC3=O)c[nH]c12 [compound 15] ([Trp(7-Me)]Q[Thp]Y(Me2NCH2CH2)[2Nal][Aib]KN[3Pal][Sar]-NH2; linker N-7 via X2)

>  <Observation Type>
solubility at 2 h

>  <Value>
≥ 920 µg/mL

$$$$
>  <Molecule>
Cc1cccc2c(C[C@@H]3NC(=O)CCCCCN(C)CCCCN(C)CCCC[C@@H](C(=O)N[C@@H](CC(N)=O)C(=O)N[C@@H](Cc4cccnc4)C(=O)N(C)CC(N)=O)NC(=O)C(C)(C)NC(=O)[C@H](Cc4ccc5ccccc5c4)NC(=O)[C@H](Cc4ccc(OCCN(C)C)cc4)NC(=O)C4(CCOCC4)NC(=O)[C@H](CCC(N)=O)NC3=O)c[nH]c12 [compound 31] ([Trp(7-Me)]Q[Thp]Y(Me2NCH2CH2)[2Nal][Aib][Lys(Me,(CH2)4NMe(CH2)5CO)]N[3Pal][Sar]-NH2; lactam N-7)

>  <Observation Type>
solubility at 2 h

>  <Value>
≥ 1090 µg/mL

$$$$
>  <Molecule>
CC(=O)NCCCC[C@@H]1NC(=O)[C@H](Cc2c[nH]c3c(C)cccc23)NC(=O)CCCCCN(C)CCCCN(C)CCCC[C@@H](C(=O)N[C@@H](CC(N)=O)C(=O)N[C@@H](Cc2cccnc2)C(=O)N(C)CC(N)=O)NC(=O)[C@](C)(CCCCN(C)C)NC(=O)[C@H](Cc2ccc3ccccc3c2)NC(=O)[C@H](Cc2ccc(OCCN(C)C)cc2)NC(=O)C2(CCOCC2)NC1=O [compound 34] ([Trp(7-Me)]K(Ac)[Thp]Y(Me2NCH2CH2)[2Nal][αMeLys(Me2)][Lys(Me,(CH2)4NMe(CH2)5CO)]N[3Pal][Sar]-NH2; lactam N-7)

>  <Observation Type>
solubility at 2 h

>  <Value>
≥ 1120 µg/mL

$$$$
>  <Molecule>
Cc1cccc2c(C[C@@H]3NC(=O)CCCCCCCCCCNC(=O)CC[C@@H](C(=O)N[C@@H](CC(N)=O)C(=O)N[C@@H](Cc4cccnc4)C(=O)N(C)CC(N)=O)NC(=O)[C@](C)(CCCCN(C)C)NC(=O)[C@H](Cc4ccc5ccccc5c4)NC(=O)[C@H](Cc4ccc(OCCN(C)C)cc4)NC(=O)C4(CCOCC4)NC(=O)[C@H](CCC(N)=O)NC3=O)c[nH]c12 [compound 20] ([Aun][Trp(7-Me)]Q[Thp]Y(Me2NCH2CH2)[2Nal][αMeLys(Me2)]EN[3Pal][Sar]-NH2; lactam N-8)

>  <Observation Type>
solubility at 2 h

>  <Value>
< 10 µg/mL

$$$$
>  <Molecule>
CC(=O)NCCCC[C@@H]1NC(=O)[C@H](Cc2c[nH]c3c(C)cccc23)NC(=O)CCCCCCCCCCNC(=O)CC[C@@H](C(=O)N[C@@H](CC(N)=O)C(=O)N[C@@H](Cc2cccnc2)C(=O)N(C)CC(N)=O)NC(=O)C2(CCOCC2)NC(=O)[C@H](Cc2ccc3ccccc3c2)NC(=O)[C@H](Cc2ccc(OCCN(C)C)cc2)NC(=O)C2(CCOCC2)NC1=O [compound 50] ([Aun][Trp(7-Me)]K(Ac)[Thp]Y(Me2NCH2CH2)[2Nal][Thp]EN[3Pal][Sar]-NH2; lactam N-8)

>  <Observation Type>
solubility at 2 h

>  <Value>
130 µg/mL

$$$$
>  <Molecule>
CC(=O)NCCCC[C@@H]1NC(=O)[C@H](Cc2c[nH]c3c(C)cccc23)NC(=O)CCCCN(C)CCCCN(C)CCCC[C@@H](C(=O)N[C@@H](CO)C(=O)N[C@@H](Cc2cccnc2)C(=O)N(C)CC(N)=O)NC(=O)C(C)(C)NC(=O)[C@H](Cc2ccc3ccccc3c2)NC(=O)[C@H](Cc2ccc(OCCN(C)C)cc2)NC(=O)C2(CCOCC2)NC1=O [compound 39] ([Trp(7-Me)]K(Ac)[Thp]Y(Me2NCH2CH2)[2Nal][Aib][Lys(Me,(CH2)4NMe(CH2)4CO)]S[3Pal][Sar]-NH2; lactam N-7)

>  <Observation Type>
solubility at 2 h

>  <Value>
850 µg/mL

$$$$
>  <Molecule>
Cc1cccc2c(C[C@@H]3NC(=O)CCCCCCCCCCCCCNC(=O)CC[C@@H](C(=O)N[C@@H](CC(N)=O)C(=O)N[C@@H](Cc4cccnc4)C(=O)N(C)CC(N)=O)NC(=O)C(C)(C)NC(=O)[C@H](Cc4ccc5ccccc5c4)NC(=O)[C@H](Cc4ccc(OCCN(C)C)cc4)NC(=O)C4(CCOCC4)NC(=O)[C@H](CCC(N)=O)NC3=O)c[nH]c12 [compound 1] ([X1][Trp(7-Me)]Q[Thp]Y(Me2NCH2CH2)[2Nal][Aib]EN[3Pal][Sar]-NH2; lactam N-8)

>  <Observation Type>
solubility at 2 h

>  <Value>
< 10 µg/mL

$$$$
>  <Molecule>
Cc1cccc2c(C[C@@H]3NC(=O)CCCCCCCCCCCNC(=O)CC[C@@H](C(=O)N[C@@H](CC(N)=O)C(=O)N[C@@H](Cc4cccnc4)C(=O)N(C)CC(N)=O)NC(=O)C(C)(C)NC(=O)[C@H](Cc4ccc5ccccc5c4)NC(=O)[C@H](Cc4ccc(OCCN(C)C)cc4)NC(=O)C4(CCOCC4)NC(=O)[C@H](CCC(N)=O)NC3=O)c[nH]c12 [compound 2] ([12Ado][Trp(7-Me)]Q[Thp]Y(Me2NCH2CH2)[2Nal][Aib]EN[3Pal][Sar]-NH2; lactam N-8)

>  <Observation Type>
solubility at 2 h

>  <Value>
10 µg/mL

$$$$
>  <Molecule>
Cc1cccc2c(C[C@@H]3NC(=O)CCCCN(C)CCCCN(C)CCCC[C@@H](C(=O)N[C@@H](CC(N)=O)C(=O)N[C@@H](Cc4cccnc4)C(=O)N(C)CC(N)=O)NC(=O)C(C)(C)NC(=O)[C@H](Cc4ccc5ccccc5c4)NC(=O)[C@H](Cc4ccc(OCCN(C)C)cc4)NC(=O)C4(CCOCC4)NC(=O)[C@H](CCC(N)=O)NC3=O)c[nH]c12 [compound 46] ([Trp(7-Me)]Q[Thp]Y(Me2NCH2CH2)[2Nal][Aib][Lys(Me,(CH2)4NMe(CH2)4CO)]N[3Pal][Sar]-NH2; lactam N-7)

>  <Observation Type>
solubility at 2 h

>  <Value>
≥ 890 µg/mL

$$$$
